Listed next: entries and their corresponding normalized RNA/DNA level with ligand (log10).
B1: library; a variant is named by its letters at N, in order (parent)
chain: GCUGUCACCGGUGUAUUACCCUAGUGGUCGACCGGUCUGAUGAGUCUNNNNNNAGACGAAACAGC

Variants of: B1
Method Description: normalized RNA/DNA level with ligand (relative to sTRSVctl = 100) (log10 (% of sTRSVctl)); ligand: hypoxanthine (xanthine aptamer); higher = less ribozyme self-cleavage, higher mRNA level
Condition Details: ligand concentration (+) RNA-Seq: 5 mM, HEK293T, reporter: mCherry (pCS4076), ligand present: yes
Value Type: normalized RNA/DNA level with ligand (log10)

{"columns": ["Mutant", "Reported"],
 "data": [
  ["AUGAUG", 1.79],
  ["AUCGCG", 1.86],
  ["AGAGCG", 1.81],
  ["CACGAG", 1.9],
  ["UAGGUU", 1.96],
  ["UUAUCA", 1.95],
  ["AUUACA", 1.91],
  ["GACGUG", 1.83],
  ["CUCCAC", 1.92],
  ["GAUCUA", 1.95],
  ["GUACUG", 1.88],
  ["CCUUGA", 1.97],
  ["AGCUUG", 1.94],
  ["CCCCCA", 1.94],
  ["UACGCC", 2],
  ["CCCAAG", 1.91],
  ["UGGGCA", 1.94],
  ["CUGACU", 1.99],
  ["UUUAAC", 2],
  ["GCCACU", 1.99],
  ["AGGGGU", 1.86],
  ["CUUGAA", 1.95]
]}
